Values were extracted from patent US20260258115A1.

molecular target: RSV postfusion F (postF), F ΔFP (Respiratory Syncytial Virus, UniProt P03420 26-513); test: BLI, IgG on anti-human IgG sensor, 100 nM antigen, 1:1 fit
parameterMeasured: Kd

binder="ADI-41459 (antibody, V domains shown, also called Ab 743; Antibody Number 743) VH: QVQLVESGGGLVQPGGSLRLSCAASGFPFSAYGINWVRQAPGKGLEWVSYISSTSTTIKYADSVKGRFTISRDDAKNSLYLQLRSLRPEDTAVYYCAGGVWSGYYIDFWGQGTPVTVSS VL: NFMLTQPQSVSESPGKTVTISCTRSSGSIGSNFVQWYQQRPGSSPTTVIYEDYQRPSGVPDRFSGSIDSSSNSASLTISGLKTEDEADYYCQSYDADMMVFGGGTKLTVL" recordedresult="343 pM"
